- Assayed System: T1, Mcl-1, Q07820
- T1 chain: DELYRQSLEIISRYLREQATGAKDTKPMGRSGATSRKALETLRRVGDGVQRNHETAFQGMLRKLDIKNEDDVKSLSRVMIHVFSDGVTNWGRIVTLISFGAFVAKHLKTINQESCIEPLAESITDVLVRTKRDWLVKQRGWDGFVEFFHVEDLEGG
- Protocol Details: peptide SPOT array, c-Myc-tagged receptor at 1 uM or 100 nM, anti-c-Myc-Cy3
Returns one of Satisfied or Not satisfied; Satisfied when SPOT signal as a fraction of Bim BH3's signal on the same receptor and array is >= 0.03.

>>> label("RRTSINVVRHLGIVGECNIQFALHPT [CPS1]")
"Not satisfied"
>>> label("LWAAQRYGREDRRMSDEFVDSFKKGL [BAD]")
"Satisfied"
>>> label("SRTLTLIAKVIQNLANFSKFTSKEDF [SYNGAP1]")
"Satisfied"
>>> label("HQAEVQIARKLQCILDQFHRLHVQQH [BMF]")
"Satisfied"
>>> label("EKVLIFGGDIDKFAGDALLALWRVER [ADCY10]")
"Not satisfied"
>>> label("GYPFNDVCQWFIDRLDLIFVVFDPTK [SRL]")
"Satisfied"
>>> label("VEQFSEASQQMAELSEVLVLRLENYE [HAP1]")
"Not satisfied"
>>> label("CSTNNPSQAKLRRELDESLQVAERLT [CLU]")
"Not satisfied"
>>> label("LCQLSCVSKLMRDVCGSLLQSRGMVI [FBXO30]")
"Satisfied"
>>> label("AELEVECATQLRRFGDKLNFRQKLLN [PMAIP1]")
"Satisfied"
>>> label("RYPILENPEILRKTADDFLNRIALTD [CCNH]")
"Not satisfied"
